tgt: nitric oxide synthase (induced, from murine macrophage cell line J774A-1) (Mus musculus, UniProt P29477)
Construct: The reaction is started by adding 50 μl of cell lysate (prepared as above); endogenous in cells; crude cell lysate
methodSummary: Screen 1: nitric oxide synthase inhibition, 3H-L-arginine to 3H-L-citrulline conversion, lysate of induced J774A-1 cells
conditions: standard to verify the procedure, 1 hour at room temperature, read-out: IC50 (50% inhibitory concentration)
recordedEndpoint: IC50 (µM)
Quick note: give the figure in µM, leave out the unit.

Which measured IC50 value corresponds to N=C(N)NN ?
10

---

Each item that follows carries a reported melting point.

Below: 8 compounds and their reported melting point.
N#Cc1ccc(Cl)cc1O[C@H](CCCN1CCCC1)c1ccccc1.O=C(O)C(=O)O [Example 3] :: 157 to 158 °C
N#Cc1ccc(Cl)cc1O[C@H](CCCNCc1cccnc1)c1ccccc1.O=C(O)C(=O)O [Example 6] :: 188 to 189 °C
N#Cc1ccc(Cl)cc1O[C@H](CCCNC1CC1)c1ccccc1.O=C(O)C(=O)O [Example 10] :: 173 to 174 °C
CNCCCC(Oc1cc(Cl)c(F)cc1C#N)c1ccccn1.O=C(O)C(=O)O (stereo not drawn) [Example 32] :: 169 to 170 °C
N#Cc1ccc(Cl)cc1O[C@H](CCCNCCCO)c1ccccc1.O=C(O)C(=O)O [Example 11] :: 111 to 112 °C
CCN(CCO)CCC[C@@H](Oc1cc(Cl)ccc1C#N)c1ccccc1.Cl :: 141 to 144 °C
CNCCCC(Oc1cc(Cl)ccc1C#N)c1ccncc1.O=C(O)C(=O)O (stereo not drawn) [Example 37] :: 169 to 172 °C
CNCCCC(Oc1cc(Cl)ccc1C#N)c1ccccn1.O=C(O)C(=O)O (stereo not drawn) [Example 31] :: 170 to 171 °C

Which measured melting point value corresponds to CNCC[C@@H](Cc1ccccc1)Oc1cc(Cl)ccc1Cl.O=C(O)C(=O)O [Example 2] ?
167 to 169 °C

Which measured melting point value corresponds to C[C@H](CO)NCCC[C@@H](Oc1cc(Cl)ccc1C#N)c1ccccc1.O=C(O)C(=O)O [Example 12] ?
163 to 164 °C

Which measured melting point value corresponds to N#Cc1ccc(Cl)cc1O[C@H](CCCNCCO)c1ccccc1.O=C(O)C(=O)O [Example 9] ?
158 to 159 °C

---

Each item that follows carries a reported melting point.

Below: 3 molecules and their reported melting point.
C[C@@H](CO)NCCC[C@@H](Oc1cc(Cl)ccc1C#N)c1ccccc1.O=C(O)C(=O)O [Example 13] :: 186 to 187 °C
CNCCC[C@@H](Oc1cc(Cl)ccc1C#N)c1ccccc1.O=C(O)C(=O)O [Example 1] :: 167 to 169 °C
CNCC[C@@H](Cc1ccc(F)cc1)Oc1cc(Cl)ccc1Cl [Example 15] :: 160 to 162 °C

Let us examine a further case.
Which measured melting point value corresponds to CNCC[C@@H](Cc1ccc(C)cc1)Oc1cc(Cl)ccc1Cl.O=C(O)/C=C/C(=O)O [Example 17] ?
126 to 130 °C
